- assay explanation: Leakage marker sodium fluorescein transport, AP to BL, Caco-2 monolayer integrity
- Format: in vitro ADME
- study conditions: human, 60 min
- Description: The integrity of cell monolayers was also assessed by the transport of the leakage marker sodium fluorescein. On day 21, the Caco-2 monolayers were rinsed twice with pre-warmed HBSS and were then incubated with the same solution at 37 °C for 30 min, on a shaker at 50 rpm. […] The sodium fluorescein intensity was determined with a Hitachi F-4500 fluorometer (excitation wavelength 490 nm, emission 525 nm).
observable: Papp A→B at 60 min, 1 mM (×10⁻⁶ cm/s)

compound: O=C1OC2(c3ccc(O)cc3Oc3cc(O)ccc32)c2ccccc21 [sodium fluorescein]
reported measurement: 0.771
